B1: LINE1-full (parent)
chain: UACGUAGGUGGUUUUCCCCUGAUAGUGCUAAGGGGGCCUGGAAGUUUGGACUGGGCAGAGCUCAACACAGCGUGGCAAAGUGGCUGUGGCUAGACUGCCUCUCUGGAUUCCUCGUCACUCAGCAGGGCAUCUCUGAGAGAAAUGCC

variants of: B1; experiment: self-cleavage, relative activity (ratio to wild type); higher = more cleavage; in vitro, sequencing; the parent is a self-cleaving ribozyme
# binarize self-cleavage: threshold 0.3 inclusive, high side yes, low side no

- Mutation notation: "A2G A22U"
  Assigned class: "no"
- Mutation notation: "U13C U130G"
  Assigned class: "yes"
- Mutation notation: "G34A U100C"
  Assigned class: "yes"
- Mutation notation: "G74A U85A"
  Assigned class: "no"
- Mutation notation: "U15A A65U"
  Assigned class: "no"
